TESTED_SYSTEM: GABA-A receptor; alpha-3/beta-3/gamma-2 (Homo sapiens) (UniProt P18507+P28472+P34903)
ASSAY_TEXT: Efficacy was measured as modulation of the current in response to GABA at hGABA alpha-3-beta-3-gamma-2 receptor expressed in Xenopus oocytes
Format: cell-based
CONDITIONS: Oocyte
Items are presented alongside their recorded Efficacy.
Quick note: give the figure in %, leave out the unit.

Example entries begin here.
1) Cn1cnc(COc2nn3c(-c4ccccc4)nnc3c3c2C2CCC3CC2)n1    88
2) CN1C(=O)CN=C(c2ccccc2)c2cc(Cl)ccc21    118
3) Cc1ccnc(COc2nn3c(-c4ccccc4)nnc3c3c2C2CCC3CC2)c1    33
4) c1ccc(COc2cccnc2COc2nn3c(-c4ccccc4)nnc3c3c2C2CCC3CC2)cc1    132
5) c1ccc(COc2nn3c(-c4cccnc4)nnc3c3c2C2CCC3CC2)nc1    9

Tell me the measured Efficacy of c1ccc(-c2nnc3c4c(c(OCc5cccnn5)nn23)C2CCC4CC2)cc1 , please.
57

Tell me the measured Efficacy of Cc1ccc(COc2nn3c(-c4ccccc4)nnc3c3c2C2CCC3CC2)nc1 , please.
74

Tell me the measured Efficacy of Cc1ccnc(COc2nn3c(-c4ccccc4)nnc3c3c2C2CCC3CC2)c1C , please.
17

Tell me the measured Efficacy of c1ccc(-c2nnc3c4c(c(OCc5nccs5)nn23)C2CCC4CC2)cc1 , please.
27

Tell me the measured Efficacy of c1ccc(-c2nnc3c4c(c(OCc5cscn5)nn23)C2CCC4CC2)cc1 , please.
33

Tell me the measured Efficacy of c1ccc(-c2nnc3c4c(c(OCn5cccn5)nn23)C2CCC4CC2)cc1 , please.
0

Tell me the measured Efficacy of Cc1c[nH]c(COc2nn3c(-c4ccccc4)nnc3c3c2C2CCC3CC2)n1 , please.
28
